# Assay method text: self-splicing fitness, log relative to wild type (ln ratio); higher = more splicing; Tetrahymena group I intron in knt gene, E. coli kanamycin selection, DiMSum; sequences stand for … in CUCUCU…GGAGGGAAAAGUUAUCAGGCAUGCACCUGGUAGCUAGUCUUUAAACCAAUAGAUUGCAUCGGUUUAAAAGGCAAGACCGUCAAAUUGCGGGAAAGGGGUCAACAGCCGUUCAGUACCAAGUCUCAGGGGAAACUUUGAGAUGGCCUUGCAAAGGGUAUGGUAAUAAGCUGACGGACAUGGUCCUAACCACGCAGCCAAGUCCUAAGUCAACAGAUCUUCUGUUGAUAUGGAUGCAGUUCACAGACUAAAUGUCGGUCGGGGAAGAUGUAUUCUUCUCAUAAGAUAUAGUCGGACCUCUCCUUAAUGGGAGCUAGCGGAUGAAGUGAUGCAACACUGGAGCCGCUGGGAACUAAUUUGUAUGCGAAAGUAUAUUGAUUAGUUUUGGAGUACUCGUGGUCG;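 also: selection with 25 µg/mL kanamycin versus none on LB agar overnight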
# Test settings: 37 °C
Parameter: self-splicing fitness (ln)
# answer = number (no unit)

GACCAGCAAUAUUACGCAAU; -0.343
CGAUAGCAAUAUUACGUAUA; -3.14
GUCUAGCAAUAUUACGUCCU; -0.136

Just so you know, measured self-splicing fitness (ln) for GUAUAGCAAUAUUACGUAUC came out at -0.978

Just so you know, measured self-splicing fitness (ln) for AGGCAGCAAUAUUACGCGUU came out at -0.692

Just so you know, measured self-splicing fitness (ln) for UGACAGCAAUAUUACGAAUU came out at -1.53

Just so you know, measured self-splicing fitness (ln) for UCGUAGCAAUAUUACGUGGU came out at -2.67

Just so you know, measured self-splicing fitness (ln) for ACGCAGCAAUAUUACGGUGG came out at -1.17

Just so you know, measured self-splicing fitness (ln) for AGCGAGCAAUAUUACGAGCG came out at -0.201

Just so you know, measured self-splicing fitness (ln) for CGGCAGCAAUAUUACGUUUU came out at -2.09

Just so you know, measured self-splicing fitness (ln) for GCGAAGCAAUAUUACGAAAC came out at -0.819

Just so you know, measured self-splicing fitness (ln) for GUCCAGCAAUAUUACGGGAG came out at -0.322

====

# Assay method text: self-splicing fitness, log relative to wild type (ln ratio); higher = more splicing; Tetrahymena group I intron in knt gene, E. coli kanamycin selection, DiMSum; sequences stand for … in CUCUCU…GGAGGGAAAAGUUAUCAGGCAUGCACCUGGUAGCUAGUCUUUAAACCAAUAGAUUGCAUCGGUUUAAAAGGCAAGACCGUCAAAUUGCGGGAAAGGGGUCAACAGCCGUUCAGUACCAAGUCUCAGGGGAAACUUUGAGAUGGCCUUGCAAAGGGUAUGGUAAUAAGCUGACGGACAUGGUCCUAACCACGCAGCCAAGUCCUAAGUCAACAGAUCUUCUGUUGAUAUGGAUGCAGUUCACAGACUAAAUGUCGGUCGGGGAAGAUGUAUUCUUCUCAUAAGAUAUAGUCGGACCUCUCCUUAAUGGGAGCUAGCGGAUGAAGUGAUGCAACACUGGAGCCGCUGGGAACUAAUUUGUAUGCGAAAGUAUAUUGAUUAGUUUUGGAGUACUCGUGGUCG
# Test settings: 37 °C
Decision: self-splicing fitness (ln) >= -1 yields y, all other cases yield n.

The following sequences have reported results that may help.
ACAAAGCAAUAUUACGCCAA; n
UUCUAGCAAUAUUACGUAUA; y
GGAUAGCAAUAUUACGUAGC; n
AACCAGCAAUAUUACGCUUU; n
CUUAAGCAAUAUUACGUGAC; n

Exam item: Check if self-splicing fitness (ln) >= -1 (inclusive). Item: CCUGAGCAAUAUUACGUAUG
Marked response: n

Exam item: Check if self-splicing fitness (ln) >= -1 (inclusive). Item: UACCAGCAAUAUUACGCGUG
Marked response: y

====

# Assay method text: self-splicing fitness, log relative to wild type (ln ratio); higher = more splicing; Tetrahymena group I intron in knt gene, E. coli kanamycin selection, DiMSum; sequences stand for … in CUCUCU…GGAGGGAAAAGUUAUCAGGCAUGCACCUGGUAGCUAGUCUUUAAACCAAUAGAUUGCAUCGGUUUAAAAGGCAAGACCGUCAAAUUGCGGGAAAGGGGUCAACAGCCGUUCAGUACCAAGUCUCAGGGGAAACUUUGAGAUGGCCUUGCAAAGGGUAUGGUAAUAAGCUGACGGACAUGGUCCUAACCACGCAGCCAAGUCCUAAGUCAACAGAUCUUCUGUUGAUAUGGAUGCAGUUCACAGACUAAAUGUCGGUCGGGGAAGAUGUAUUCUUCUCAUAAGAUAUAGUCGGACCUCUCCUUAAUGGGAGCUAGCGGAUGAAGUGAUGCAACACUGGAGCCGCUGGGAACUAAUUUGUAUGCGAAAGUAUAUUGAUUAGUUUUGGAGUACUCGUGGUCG
# Test settings: 37 °C
Parameter: self-splicing fitness (ln)
# answer = number (no unit)

AGAUAGCAAUAUUACGUGGC; -2.86
GACCAGCAAUAUUACGUAGG; -1.62
UAUCAGCAAUAUUACGCAUC; -0.409
AAGUAGCAAUAUUACGUCUG; 0.168
GAGAAGCAAUAUUACGGCCA; -0.286

Just so you know, measured self-splicing fitness (ln) for GGCGAGCAAUAUUACGCUUC came out at -2.53

====

# Assay method text: self-splicing fitness, log relative to wild type (ln ratio); higher = more splicing; Tetrahymena group I intron in knt gene, E. coli kanamycin selection, DiMSum; sequences stand for … in CUCUCU…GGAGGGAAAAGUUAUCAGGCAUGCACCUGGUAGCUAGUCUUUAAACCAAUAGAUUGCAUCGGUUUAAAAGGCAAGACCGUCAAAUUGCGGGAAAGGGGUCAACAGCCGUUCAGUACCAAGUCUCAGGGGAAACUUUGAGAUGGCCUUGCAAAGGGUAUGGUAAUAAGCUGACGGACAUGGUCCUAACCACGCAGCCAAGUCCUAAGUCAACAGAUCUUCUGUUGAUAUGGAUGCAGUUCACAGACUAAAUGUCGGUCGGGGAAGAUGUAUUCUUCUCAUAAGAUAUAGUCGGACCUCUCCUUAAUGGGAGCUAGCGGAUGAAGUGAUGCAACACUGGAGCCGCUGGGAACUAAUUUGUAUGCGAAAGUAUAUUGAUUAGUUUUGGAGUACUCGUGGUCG
# Test settings: 30 °C
Decision: self-splicing fitness (ln) >= -3 yields label 1, all other cases yield label 0.

The following sequences have reported results that may help.
UAUAAGCAAUAUUACGUAGU; label 0
UGAUAGCAAUAUUACGGGUG; label 1
CAAGAGCAAUAUUACGUUUA; label 1
UCCCAGCAAUAUUACGUGAA; label 1
GCCAAGCAAUAUUACGGGAU; label 1

Exam item: Check if self-splicing fitness (ln) >= -3 (inclusive). Item: GGUAAGCAAUAUUACGUAUC
Marked response: label 0

Exam item: Check if self-splicing fitness (ln) >= -3 (inclusive). Item: GCCAAGCAAUAUUACGAAGC
Marked response: label 1

====

# Assay method text: self-splicing fitness, log relative to wild type (ln ratio); higher = more splicing; Tetrahymena group I intron in knt gene, E. coli kanamycin selection, DiMSum; sequences stand for … in CUCUCU…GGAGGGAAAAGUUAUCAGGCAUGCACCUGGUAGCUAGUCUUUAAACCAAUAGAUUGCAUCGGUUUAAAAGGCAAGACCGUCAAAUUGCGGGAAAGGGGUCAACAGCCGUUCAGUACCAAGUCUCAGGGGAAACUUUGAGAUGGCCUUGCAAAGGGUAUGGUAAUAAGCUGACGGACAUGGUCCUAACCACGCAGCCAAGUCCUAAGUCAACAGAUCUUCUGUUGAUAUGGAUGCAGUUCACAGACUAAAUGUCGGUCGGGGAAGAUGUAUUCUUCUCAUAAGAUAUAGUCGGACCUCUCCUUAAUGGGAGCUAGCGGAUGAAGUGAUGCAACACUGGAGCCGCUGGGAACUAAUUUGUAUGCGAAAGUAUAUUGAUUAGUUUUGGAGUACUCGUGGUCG
# Test settings: 37 °C
Parameter: self-splicing fitness (ln)
# answer = number (no unit)

CCCUAGCAAUAUUACGCGAG; -3.25
GUUAAGCAAUAUUACGCUUU; -0.79
GCAUAGCAAUAUUACGUAUU; -2.04
UAUAAGCAAUAUUACGAACG; 0.622

Just so you know, measured self-splicing fitness (ln) for UAACAGCAAUAUUACGUUAU came out at -2.96

Just so you know, measured self-splicing fitness (ln) for UGGCAGCAAUAUUACGCGAC came out at -1.64

====

# Assay method text: self-splicing fitness, log relative to wild type (ln ratio); higher = more splicing; Tetrahymena group I intron in knt gene, E. coli kanamycin selection, DiMSum; sequences stand for … in CUCUCU…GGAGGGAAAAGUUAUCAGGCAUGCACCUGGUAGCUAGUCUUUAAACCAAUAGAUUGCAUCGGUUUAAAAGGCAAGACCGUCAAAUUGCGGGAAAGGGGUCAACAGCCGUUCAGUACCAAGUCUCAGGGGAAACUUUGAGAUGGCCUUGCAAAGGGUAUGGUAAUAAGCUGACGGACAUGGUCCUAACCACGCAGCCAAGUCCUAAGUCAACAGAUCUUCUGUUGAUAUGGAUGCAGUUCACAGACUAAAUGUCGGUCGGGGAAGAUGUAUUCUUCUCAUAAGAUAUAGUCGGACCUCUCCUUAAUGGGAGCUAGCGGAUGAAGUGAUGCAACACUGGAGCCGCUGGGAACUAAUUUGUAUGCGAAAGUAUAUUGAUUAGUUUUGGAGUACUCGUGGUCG
# Test settings: 37 °C
Decision: self-splicing fitness (ln) >= -2 yields 1 (yes), all other cases yield 0 (no).

The following sequences have reported results that may help.
GCGCAGCAAUAUUACGAUUU; 1 (yes)
AAGGAGCAAUAUUACGUGUU; 0 (no)

Exam item: Check if self-splicing fitness (ln) >= -2 (inclusive). Item: UGUUAGCAAUAUUACGGAAU
Marked response: 1 (yes)

Exam item: Check if self-splicing fitness (ln) >= -2 (inclusive). Item: CUAAAGCAAUAUUACGAUAU
Marked response: 0 (no)

Exam item: Check if self-splicing fitness (ln) >= -2 (inclusive). Item: GUGGAGCAAUAUUACGAUUU
Marked response: 1 (yes)

Exam item: Check if self-splicing fitness (ln) >= -2 (inclusive). Item: UCACAGCAAUAUUACGUGGU
Marked response: 0 (no)

Exam item: Check if self-splicing fitness (ln) >= -2 (inclusive). Item: GAUCAGCAAUAUUACGAGAC
Marked response: 1 (yes)

Exam item: Check if self-splicing fitness (ln) >= -2 (inclusive). Item: CAAAAGCAAUAUUACGCGAC
Marked response: 0 (no)

Exam item: Check if self-splicing fitness (ln) >= -2 (inclusive). Item: UAGCAGCAAUAUUACGCGAU
Marked response: 0 (no)

Exam item: Check if self-splicing fitness (ln) >= -2 (inclusive). Item: CCGUAGCAAUAUUACGCGCA
Marked response: 1 (yes)

Exam item: Check if self-splicing fitness (ln) >= -2 (inclusive). Item: AGCGAGCAAUAUUACGACUG
Marked response: 1 (yes)

Exam item: Check if self-splicing fitness (ln) >= -2 (inclusive). Item: CAAAAGCAAUAUUACGUUCC
Marked response: 0 (no)

Exam item: Check if self-splicing fitness (ln) >= -2 (inclusive). Item: UUGCAGCAAUAUUACGAUGU
Marked response: 0 (no)

Exam item: Check if self-splicing fitness (ln) >= -2 (inclusive). Item: GGAGAGCAAUAUUACGGGGG
Marked response: 1 (yes)

Exam item: Check if self-splicing fitness (ln) >= -2 (inclusive). Item: UGGAAGCAAUAUUACGAUGC
Marked response: 1 (yes)

Exam item: Check if self-splicing fitness (ln) >= -2 (inclusive). Item: GGCUAGCAAUAUUACGUCAU
Marked response: 1 (yes)
